For each entry below, report its melting point value.
Write the answer as a number in °C, unit excluded.

// melting point lookup, key: Clc1ccc(C2CC(c3ccc(Cl)c(Cl)c3)=NN2c2ccccc2)cc1 (centres unmarked)
261

What do you get for O=C(/C=C/c1cccs1)c1ccc(Cl)c(Cl)c1 ?
194

Okay, and Clc1ccc(C2=NN(c3ccccc3)C(c3ccc4c(c3)OCO4)C2)cc1Cl (centres unmarked) ?
212

Another compound: Clc1ccc(C2=NN(c3ccccc3)C(c3ccc[nH]3)C2)cc1Cl (centres unmarked)
171

Further, for Fc1ccccc1C1CC(c2ccc(Cl)c(Cl)c2)=NN1c1ccccc1 (centres unmarked) ?
149

Another compound: Clc1ccc(C2=NN(c3ccccc3)C(c3ccncc3)C2)cc1Cl (centres unmarked)
214

Likewise for Fc1ccc(C2CC(c3ccc(Cl)c(Cl)c3)=NN2c2ccccc2)cc1 (centres unmarked) ?
195

Now consider Clc1ccc(C2=NN(c3ccccc3)C(c3cccs3)C2)cc1Cl (centres unmarked) and answer again.
212

Field entry: O=C(/C=C/c1cccnc1)c1ccc(Cl)c(Cl)c1
191

Try this compound too: FC(F)(F)c1ccc(C2CC(c3ccc(Cl)c(Cl)c3)=NN2c2ccccc2)cc1 (centres unmarked)
125

Now the compound Clc1ccc(C2=NN(c3ccccc3)C(c3ccccn3)C2)cc1Cl (centres unmarked)
191

Same lookup for O=C(/C=C/c1ccc(Cl)cc1Cl)c1ccc(Cl)c(Cl)c1 , please.
299

Moving on to the next compound: Clc1ccc(C2=NN(c3ccccc3)C(c3cccnc3)C2)cc1Cl (centres unmarked)
184

And for Clc1ccc(C2=NN(c3ccccc3)C(c3ccco3)C2)cc1Cl (centres unmarked) ?
200

###

Tested on: Mycobacterium tuberculosis H37Rv
Method Summary: Antitubercular activity, broth dilution assay (MIC)
Type: cell-based
Settings: Middlebrook 7H9 broth, 37 °C, 21 days
Property: MIC (µM)
Your answer is read as µM, so omit the unit and give the number.

Which MIC value belongs to Fc1ccccc1C1CC(c2ccc(Cl)c(Cl)c2)=NN1c1ccccc1 (stereo not shown) ?
32.44

Quick one: Clc1ccc(C2=NN(c3ccccc3)C(c3ccccc3Cl)C2)cc1Cl (stereo not shown)
15.55

Another compound to look at: Fc1ccc(C2CC(c3ccc(Cl)c(Cl)c3)=NN2c2ccccc2)cc1 (stereo not shown)
32.44

Ok, now Clc1ccc(C2CC(c3ccc(Cl)c(Cl)c3)=NN2c2ccccc2)cc1 (stereo not shown)
31.11

###

Test system: Mycobacterium tuberculosis H37Rv
Method Summary: Antitubercular activity, broth dilution assay (MIC)
Format: cell-based
Settings: Mycobacterium tuberculosis, H37RV, 504 h, Middlebrook 7H9 broth, 37 °C, 21 days
Property: MIC (µM)
Give the number; µM is assumed, so skip it.

// MIC lookup, key: Clc1ccc(C2=NN(c3ccccc3)C(c3ccc4c(c3)OCO4)C2)cc1Cl (centres unmarked)
60.8

Same for NC(=O)c1cnccn1 [Pyrazinamide, reference compound]
25.3

Please answer likewise for Clc1ccc(C2=NN(c3ccccc3)C(c3ccc[nH]3)C2)cc1Cl (centres unmarked)
70.2

Repeat for the following compound: O=C(/C=C/c1ccncc1)c1ccc(Cl)c(Cl)c1
45.1

Consider next the compound Cc1ccc(/C=C/C(=O)c2ccc(Cl)c(Cl)c2)cc1 in the same way.
343

Same for O=C(/C=C/c1ccccc1Cl)c1ccc(Cl)c(Cl)c1
20.1

// query: Clc1ccc(C2=NN(c3ccccc3)C(c3cccs3)C2)cc1Cl (centres unmarked)
8.35

# repeat for O=C(/C=C/c1cccs1)c1ccc(Cl)c(Cl)c1
22.1
